Assay: Cmax in male ICR mouse at 10 mg/kg, po administered as single dose and measured after 24 hrs
Type: ADME, organism-based
Details: in vivo
testReadout: Cmax

For the molecule shown here, COc1ncnc(C2CC2)c1-c1ncc2ccc(=O)n(Cc3ccc(-c4nc(C(F)(F)F)cn4C(C)C)cc3)c2n1 , give the reported Cmax.
4780 ng/mL

====

Molecular target: Ubiquitin carboxyl-terminal hydrolase 1/WD repeat-containing protein 48 (Homo sapiens) (UniProt O94782+Q8TAF3)
Experiment: Inhibition of USP1-UAF1 complex (unknown origin) using Ub-7-amido-4-methylcoumarin as substrate at 10 uM incubated for 2 hrs by fluorescence based analysis relative to control
Type: protein-complex assay
Give measured inhibition for each item. Keep answers brief.

Reported inhibition for COc1ncnc(C2CC2)c1-c1ncc2ccc(=O)n(Cc3ccc(-n4ccnc4)cc3)c2n1 : what is it?
56.9%

Give its inhibition value. Item: COc1ncccc1-c1ncc2ccc(=O)n(Cc3ccc(-c4nc(C(F)(F)F)cn4C(C)C)cc3)c2n1
63.9%

What does the record list as inhibition for COc1ncnc(C2CC2)c1-c1ncc2ccc(=O)n(Cc3ccc(-n4cccc4)cc3)c2n1 ?
71.6%

Find the recorded inhibition belonging to CC(C)n1cc(C(F)(F)F)nc1-c1ccc(Cn2c(=O)ccc3cnc(-c4ccnn4C(C)C)nc32)cc1 and report it.
56.6%

Entry COc1ncnc(C2CC2)c1-c1ncc2ccc(=O)n(Cc3ccc(-n4ccnn4)cc3)c2n1 : reported inhibition = ?
54.6%

inhibition for COc1ncnc(C2CC2)c1-c1ncc2ccc(=O)n(Cc3ccc(-c4nc(C(F)(F)F)cn4C(C)C)c(C)c3)c2n1 ?
77.9%

====

Target: Ubiquitin carboxyl-terminal hydrolase 1/WD repeat-containing protein 48 (Homo sapiens, UniProt O94782)
Sequence (O94782 whole entry): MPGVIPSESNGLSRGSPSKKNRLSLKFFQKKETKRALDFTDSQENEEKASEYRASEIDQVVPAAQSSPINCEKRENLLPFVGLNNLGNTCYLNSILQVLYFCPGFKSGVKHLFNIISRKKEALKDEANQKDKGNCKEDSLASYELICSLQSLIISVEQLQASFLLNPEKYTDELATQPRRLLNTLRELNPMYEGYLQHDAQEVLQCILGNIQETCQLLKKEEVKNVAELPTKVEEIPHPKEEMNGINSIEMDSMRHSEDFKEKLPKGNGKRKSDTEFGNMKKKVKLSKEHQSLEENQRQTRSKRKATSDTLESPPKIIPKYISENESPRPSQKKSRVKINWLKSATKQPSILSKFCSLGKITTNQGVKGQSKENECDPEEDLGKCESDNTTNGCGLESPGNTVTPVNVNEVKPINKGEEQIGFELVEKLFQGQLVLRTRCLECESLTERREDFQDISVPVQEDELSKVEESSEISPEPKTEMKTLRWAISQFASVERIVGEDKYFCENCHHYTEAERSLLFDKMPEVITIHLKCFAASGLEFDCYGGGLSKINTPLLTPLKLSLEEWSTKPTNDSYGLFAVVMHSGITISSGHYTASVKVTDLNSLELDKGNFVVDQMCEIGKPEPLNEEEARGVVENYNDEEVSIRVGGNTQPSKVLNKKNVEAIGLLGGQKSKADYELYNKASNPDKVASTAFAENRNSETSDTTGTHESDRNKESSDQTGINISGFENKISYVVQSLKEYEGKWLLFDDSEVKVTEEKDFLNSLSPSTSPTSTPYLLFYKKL
Sequence (Q8TAF3 whole entry, further chain): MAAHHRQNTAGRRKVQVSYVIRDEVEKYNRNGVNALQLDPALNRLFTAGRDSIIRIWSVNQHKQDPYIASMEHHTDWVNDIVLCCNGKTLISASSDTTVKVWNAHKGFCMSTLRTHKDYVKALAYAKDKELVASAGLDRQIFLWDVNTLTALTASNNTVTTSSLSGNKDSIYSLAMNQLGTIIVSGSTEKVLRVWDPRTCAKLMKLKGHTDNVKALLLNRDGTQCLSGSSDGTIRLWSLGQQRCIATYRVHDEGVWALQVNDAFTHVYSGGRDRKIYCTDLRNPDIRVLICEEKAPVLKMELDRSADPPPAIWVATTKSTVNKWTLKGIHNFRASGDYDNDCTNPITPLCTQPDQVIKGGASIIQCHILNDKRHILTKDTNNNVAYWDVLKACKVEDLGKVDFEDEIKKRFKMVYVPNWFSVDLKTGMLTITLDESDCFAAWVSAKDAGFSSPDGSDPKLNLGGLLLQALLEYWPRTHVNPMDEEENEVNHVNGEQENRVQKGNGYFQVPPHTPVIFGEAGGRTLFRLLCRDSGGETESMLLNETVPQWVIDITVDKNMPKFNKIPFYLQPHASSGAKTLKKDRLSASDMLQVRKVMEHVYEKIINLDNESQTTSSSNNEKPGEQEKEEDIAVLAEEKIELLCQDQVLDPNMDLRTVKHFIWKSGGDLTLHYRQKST
Test: Inhibition of USP1-UAF1 complex (unknown origin) using Ub-7-amido-4-methylcoumarin as substrate incubated for 2 hrs by fluorescence based analysis
Type: protein-complex assay
Exercise: state measured IC50 for each of the molecules provided.

Using the record for CC(C)n1cc(C(F)(F)F)nc1-c1ccc(Cn2c(=O)ccc3cnc(-c4c(Cl)cnn4C(C)C)nc32)cc1 , report its IC50.
> 10000 nM

Reported IC50, molecule COc1ncnc(C2CC2)c1-c1ncc2ccc(=O)n(Cc3ccc(-c4nc(C(F)(F)F)cn4C(C)C)c(F)c3)c2n1 : ____
22.8 nM

Item under review: CC(C)n1cc(C(F)(F)F)nc1-c1ccc(Cn2c(=O)ccc3cnc(-c4c(Cl)cccc4Cl)nc32)cc1 . Reported IC50?
> 10000 nM

Item under review: COc1ncnc(C2CC2)c1-c1ncc2ccc(=O)n(Cc3c(F)cc(-c4nc(C(F)(F)F)cn4C(C)C)cc3F)c2n1 . Reported IC50?
246 nM

====

Biological target: Ubiquitin carboxyl-terminal hydrolase 1/WD repeat-containing protein 48 (Homo sapiens)
Test: Inhibition of USP1-UAF1 complex (unknown origin) using Ub-7-amido-4-methylcoumarin as substrate incubated for 2 hrs by fluorescence based analysis
Would you kindly list IC50 for each of these molecules?

Quick one: IC50 of CC(C)n1cc(C(F)(F)F)nc1-c1ccc(Cn2c(=O)ccc3cnc(-c4c(F)cccc4Cl)nc32)cc1 ?
> 10 µM

Reported IC50 for CC(C)n1cc(C(F)(F)F)nc1-c1ccc(Cn2c(=O)ccc3cnc(-c4ccnn4C)nc32)cc1 : what is it?
> 10 µM

Item COc1ncnc(C2CC2)c1-c1ncc2ccc(=O)n(Cc3ccc(-c4ccc(C(F)(F)F)cn4)cc3)c2n1 has what recorded IC50?
> 10 µM

====

Give measured pIC50 for each item. Keep answers brief.
Biological target: Ubiquitin carboxyl-terminal hydrolase 1/WD repeat-containing protein 48 (Homo sapiens, UniProt O94782)
Assay: Inhibition of USP1-UAF1 complex (unknown origin) using Ub-7-amido-4-methylcoumarin as substrate incubated for 2 hrs by fluorescence based analysis
pIC50: −log10 of the molar value.

Recorded pIC50 of Cc1cnn(C(C)C)c1-c1ncc2ccc(=O)n(Cc3ccc(-c4nc(C(F)(F)F)cn4C(C)C)cc3)c2n1 , please.
< 5.00

Please look up its pIC50: Cc1cnn(C)c1-c1ncc2ccc(=O)n(Cc3ccc(-c4nc(C(F)(F)F)cn4C(C)C)cc3)c2n1
< 5.00

Would you mind telling me what pIC50 value was observed for COc1ccccc1-c1ncc2ccc(=O)n(Cc3ccc(-c4nc(C(F)(F)F)cn4C(C)C)cc3)c2n1 ?
< 5.00

Reference source for all entries: ChEMBL document CHEMBL5579832
